test system: TOV112D; assay: Cytotoxicity against human TOV112D cells transfected with empty vector assessed as reduction in cell viability incubated for 96 hrs by MTT assay
pIC50: −log10 of the molar value.
Think of 5 as a floor: if pIC50 stands on it or above, it is YES; beneath it, NO.

Look over these answered cases.
[[record]]
compound = "COc1ccc2nc(C)cc(N/N=C/c3cccc(OC)c3O)c2c1"
subject_of_test = "TOV112D"
assigned_label = "YES"

[[record]]
compound = "Nc1c2ccccc2nc2ccccc12 [AMINACRINE]"
subject_of_test = "TOV112D"
assigned_label = "YES"


Prompt line: Textbook exercise: given the entry `COc1ccc2nc(C)cc(NNC(=O)c3ccc(F)cc3)c2c1` , state whether its pIC50 is greater than or equal to 5.
Response line: NO

Prompt line: Textbook exercise: given the entry `COc1ccc2nc(C)cc(N/N=C/Cc3ccccc3)c2c1` , state whether its pIC50 is greater than or equal to 5.
Response line: NO

Prompt line: Textbook exercise: given the entry `COc1ccc2nc(C)cc(N/N=C/c3ccc(C(=O)O)cc3)c2c1` , state whether its pIC50 is greater than or equal to 5.
Response line: NO

Prompt line: Textbook exercise: given the entry `COc1ccc2nc(C)cc(N/N=C/c3ccc(O)cc3)c2c1` , state whether its pIC50 is greater than or equal to 5.
Response line: YES

Prompt line: Textbook exercise: given the entry `COc1ccc2nc(C)cc(N/N=C/c3c[nH]cn3)c2c1` , state whether its pIC50 is greater than or equal to 5.
Response line: YES
